system: SK-OV-3 ovarian; experiment: NCI-60 one-dose screen, 48 h (100 = growth as untreated, 0 = no growth, -100 = all killed); conditions: 10 µM unless noted
Compounds without any hit were thinned out: in the full panel of roughly 83,000, 20% have a hit. Active and inactive are the calls of the source. Rule for the calls: active = growth percent below 10; inactive = the rest.
Please provide measured growth for the entries that follow.

-- ask What value of growth has been recorded for this entry: C=CCOC(=O)C1=C(C)NC2=C(C(=O)CCC2)C1c1ccc(F)cc1 (centres undefined)
-- reply 86.6% (inactive)

-- ask Tell me the measured growth of CS(=O)(=O)c1ccc(C(=O)N/N=C/c2ccccc2O)cc1 , please.
-- reply 39.9% (inactive)

-- ask Any idea what growth was measured for COC(=O)[C@H](Cc1cn(C)cn1)NC(=O)[C@H](CC(C)C)NC(=O)Nc1cc(C(F)(F)F)cc(C(F)(F)F)c1 ?
-- reply -100% [100 µM] (active)

-- ask Looking for the measured growth of COc1ccc(-c2cc(C(=O)Nc3ccc(C)cc3)nc3[nH]c(=O)sc23)cc1 , can you help?
-- reply 68.4% (inactive)

-- ask So what's the measured growth for this one? COC1(OC)C2(Cl)CCC1(Cl)C(Cl)=C2Cl
-- reply 104% (inactive)

-- ask # lookup: growth of CC(=O)Oc1c(Cl)c(Cl)c(Cl)c(Cl)c1Cl
-- reply 91.4% (inactive)

-- ask Returns the measured growth for the input compound. Input: CCOC(=O)C1=C(C(=O)OCC)N(c2cc(OC)c(OC)c(OC)c2)C(N)=C(C#N)C1c1cc(=O)[nH]c2ccccc12 (centres undefined)
-- reply 97% (inactive)

-- ask Can you share its growth? I mean this compound: Nc1c(C(=O)Nc2ccccc2)sc2nc3c(cc12)C(=O)CCC3
-- reply 19.7% (inactive)

-- ask May I ask what growth has been recorded for CCN(C(=O)CCl)C(C)(C)C(SSSC(c1ccc(Cl)cc1)C(C)(C)N(CC)C(=O)CCl)c1ccc(Cl)cc1 (centres undefined) ?
-- reply 87.5% (inactive)

-- ask What measured growth goes with CCOC(=O)c1cnc(SCC)nc1SC#N ?
-- reply 115% (inactive)

-- ask Given the compound Nc1ncnc2c1N=C(c1ccc3c(c1)OCO3)CC(c1ccc(Cl)cc1)N2 (centres undefined) , what is its reported growth?
-- reply 78.9% (inactive)

-- ask Sample CCN(CC)CC(=O)Nc1c(C)cc(C(=O)NN)cc1C — what was its growth?
-- reply 98.7% (inactive)

-- ask Given Fc1ccc(-c2nc(-c3ccc(-c4nc5ccc(F)cc5[nH]4)cc3)no2)cc1 , state its recorded growth.
-- reply 39.8% (inactive)

-- ask I have this compound here, Cc1c(C(N)=O)sc2ncn(CC(=O)NN=C3CCCCC3)c(=O)c12 , and I need its recorded growth.
-- reply 110% (inactive)

-- ask Which value of growth has been reported for COc1cc(NC(=O)CSc2nc3ccc(Cl)cc3c(=O)n2-c2ccccc2)cc(OC)c1OC in the records?
-- reply 101% (inactive)

-- ask Any idea what its growth is? The compound is Cc1ccccc1NC(=O)c1sc2nc3c(cc2c1N)C(=O)CCC3
-- reply 22.1% (inactive)

-- ask // lookup growth for CCCCCCCCOC(=O)C(C)OC(=O)OCCOCCOC(=O)OC(C)C(=O)OCCCCCCCC (centres undefined)
-- reply 103% (inactive)

-- ask Form field: reported growth of CN(C)c1ccc(C2(Cl)c3ccccc3N(C)c3ccccc32)cc1
-- reply 77.6% (inactive)

-- ask Query: growth; subject: CO[C@H](C(=O)[C@@H](O)[C@@H](C)O)[C@@H]1Cc2cc3cc(O[C@H]4C[C@@H](O[C@H]5C[C@@H](O)[C@H](O)C(C)O5)[C@H](O)C(C)O4)c(C)c(O)c3c(O)c2C(=O)[C@H]1O[C@H]1C[C@@H](O[C@H]2C[C@@H](O[C@H]3C[C@](C)(O)C(=O)C(C)O3)[C@@H](O)C(C)O2)[C@H](O)C(C)O1 (some centres undefined)
-- reply 9.52% (active)
